- Assay Remarks: in vivo
- Assay Context: both, cynomolgus monkey, iv, 10 mg/kg, AUCτ, cynomolgus, 10 mg/kg i.v., Day 1, mean
Where a SMILES comes first, the peptide text is derived from it. Bridges are numbered along the chain shown (N, C = ends).
Measured Metric: AUC (ng·h/mL)
Give bare numbers, in ng·h/mL.

Specify reported AUC for the molecule shown: CC[C@H](C)[C@@H]1NC(=O)[C@@H]2CSSC[C@H](NC(=O)[C@H](CCCNC(=N)N)NC(=O)[C@@H]3CSSC[C@H](NC1=O)C(=O)N[C@@H]([C@@H](C)O)C(=O)N[C@@H](CCCNC(=N)N)C(=O)NCC(=O)N[C@@H](Cc1ccccc1)C(=O)N3)C(=O)N[C@@H](CC(C)C)C(=O)N[C@H]1CSSC[C@H](NC(=O)[C@H](C(C)C)NC(=O)CNC(=O)[C@H](CCCNC(=N)N)NC(=O)[C@H](CCCNC(=N)N)NC1=O)C(=O)N[C@@H](CCCNC(=N)N)C(=O)N2 [Peptide 1] (cyclo(GFCRCLCRRGVCRCICTR); disulfide 3-16, 5-14, 7-12)
76100

Attribution: patent US20240108702A1
